Value source: patent US20040086966A1

Biological target: T1, human ChemerinR (human, UniProt Q99788 3-373)
T1 construct: Expressed in CHO-K1 cells (with or without apoaequorin and G alpha 16); membranes of these cells in the GTPgammaS assay; endogenous on monocyte-derived dendritic cells and macrophages; also called ChemR23; hChemR23
T1 sequence: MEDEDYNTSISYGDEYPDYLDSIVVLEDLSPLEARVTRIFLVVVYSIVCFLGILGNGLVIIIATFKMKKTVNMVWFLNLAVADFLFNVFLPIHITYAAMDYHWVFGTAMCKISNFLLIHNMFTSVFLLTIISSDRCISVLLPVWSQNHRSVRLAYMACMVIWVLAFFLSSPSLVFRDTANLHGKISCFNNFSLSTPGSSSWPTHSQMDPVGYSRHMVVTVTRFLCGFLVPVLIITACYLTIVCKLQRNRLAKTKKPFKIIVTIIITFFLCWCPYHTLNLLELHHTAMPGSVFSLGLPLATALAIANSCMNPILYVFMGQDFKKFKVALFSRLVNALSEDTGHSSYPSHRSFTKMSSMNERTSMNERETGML
Experiment: competition binding on ChemerinR-expressing CHO-K1 cells, tracer 125I-…, one-site model, 3 experiments
reported metric: Ki (nM)

binder | reported metric | unit label | numeric value
YHSFFFPGQFAFS (also called unlabeled peptide; unlabel peptide) [YHSFFFPGQFAFS peptide (unlabeled)] | Ki | nM | 12.1
